The origin of these recorded values is the supplement of paper PMC4962491.

Test system: FaDu;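 note: compound exposure in DMEM (4 mM L-glutamine, 5 mM glucose), antimycin A injected at 2 µM after the basal reading and its residual OCR subtracted from basal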
methodDescription: mitochondrial oxygen consumption rate normalised to cell number, Z score vs plate DMSO wells; higher = higher oxygen consumption (negative = OCR reduction)
settings: 10 µM; treatment time 24 h; assay medium: 5 mM glucose, 5 mM pyruvate, 4 mM glutamine
What mitochondrial oxygen consumption rate normalised was measured for each of the following?

Recorded results for 2 compounds are shown here.
C[n+]1cc2c3c(ccc2c2ccc4cc5c(cc4c21)OCO5)OCO3: -3.47
CCc1c2c(nc3ccc(OC(=O)N4CCC(N5CCCCC5)CC4)cc13)-c1cc3c(c(=O)n1C2)COC(=O)[C@]3(O)CC: -4.72

API: the following record is the query input.
Consider the compound shown here: COc1cccc2c1C(=O)c1c(O)c3c(c(O)c1C2=O)C[C@@](O)(C(=O)CO)C[C@@H]3O[C@H]1C[C@H](N)[C@@H](O)[C@H](C)O1 What is its recorded mitochondrial oxygen consumption rate normalised?
1.58
